Below: a set of entries, each annotated with reported Ratio.
Molecular target: Thioesterase GrsT homolog tycF (Brevibacillus brevis)
Experiment: Catalytic efficiency (Kcat/Km) was determined
Design: unit not given here
# output: bare number, no unit

Look over these answered cases.
RECORD_SMILES	Ratio
CC(=O)NCCSC(=O)[C@H](CC(C)C)NC(=O)[C@H](CCCN)NC(=O)[C@@H](NC(=O)[C@H](Cc1ccc(O)cc1)NC(=O)[C@H](CCC(N)=O)NC(=O)[C@H](CC(N)=O)NC(=O)[C@@H](Cc1ccccc1)NC(=O)[C@H](Cc1ccccc1)NC(=O)[C@H](CC(=O)O)NC(=O)[C@H](N)Cc1ccccc1)C(C)C	0.11
CC(=O)NCCSC(=O)[C@H](CC(C)C)NC(=O)[C@H](CCCN)NC(=O)[C@@H](NC(=O)[C@H](Cc1ccc(O)cc1)NC(=O)[C@H](CCC(N)=O)NC(=O)[C@H](CC(N)=O)NC(=O)[C@@H](Cc1ccccc1)NC(=O)[C@H](CC(N)=O)NC(=O)[C@@H]1CCCN1C(=O)[C@H](N)Cc1ccccc1)C(C)C	0.083
CC(=O)NCCSC(=O)[C@H](CC(C)C)NC(=O)[C@H](CCCN)NC(=O)[C@H](CCCN=C(N)N)NC(=O)[C@H](Cc1ccc(O)cc1)NC(=O)[C@H](CCC(N)=O)NC(=O)[C@H](CC(N)=O)NC(=O)[C@@H](Cc1ccccc1)NC(=O)[C@H](Cc1ccccc1)NC(=O)[C@@H]1CCCN1C(=O)[C@H](N)Cc1ccccc1	0.28

// query Recorded Ratio of CC(=O)NCCSC(=O)[C@H](CC(C)C)NC(=O)[C@H](CCCN)NC(=O)[C@@H](NC(=O)[C@H](Cc1ccc(O)cc1)NC(=O)[C@H](CC(C)C)NC(=O)[C@H](CC(N)=O)NC(=O)[C@@H](Cc1ccccc1)NC(=O)[C@H](Cc1ccccc1)NC(=O)[C@@H]1CCCN1C(=O)[C@H](N)Cc1ccccc1)C(C)C , please.
// result 0.32

// query Can you share its Ratio? I mean this compound: CSCC[C@H](NC(=O)[C@H](Cc1ccccc1)NC(=O)[C@@H]1CCCN1C(=O)[C@H](N)Cc1ccccc1)C(=O)N[C@@H](CC(N)=O)C(=O)N[C@@H](CCC(N)=O)C(=O)N[C@@H](Cc1ccc(O)cc1)C(=O)N[C@H](C(=O)N[C@@H](CCCN)C(=O)N[C@@H](CC(C)C)C(=O)SCCNC(C)=O)C(C)C
// result 0.8

Attribution: ChEMBL document CHEMBL1135258
